- condition_info: in methanol, 278.15 K
endpoint_label: solubility (mole fraction)
Write the number on its own, no unit after it.

In: Reported solubility (mole fraction), compound c1ccc(-n2c3ccccc3c3ccccc32)cc1 : ____
Out: 6.96e-05

* * *

- condition_info: in ethanol, 278.15 K
endpoint_label: solubility (mole fraction)
Write the number on its own, no unit after it.

In: Reported solubility (mole fraction), molecule c1ccc(-n2c3ccccc3c3ccccc32)cc1 : ____
Out: 0.00099

* * *

- condition_info: in THF, 278.15 K
endpoint_label: solubility (mole fraction)
Write the number on its own, no unit after it.

In: Reported solubility (mole fraction), compound c1ccc(-n2c3ccccc3c3ccccc32)cc1 : ____
Out: 0.249
